# Assayed system: NRAS G12C (Homo sapiens (Human), UniProt P01111+P62937, G12C)
# Sequence (P01111 whole entry G12C): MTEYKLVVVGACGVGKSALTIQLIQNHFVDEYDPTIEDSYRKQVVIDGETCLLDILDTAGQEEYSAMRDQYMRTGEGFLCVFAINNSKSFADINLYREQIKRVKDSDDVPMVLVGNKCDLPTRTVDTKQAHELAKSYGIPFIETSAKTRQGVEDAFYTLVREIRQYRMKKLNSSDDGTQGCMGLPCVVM
# Sequence (P62937 whole entry): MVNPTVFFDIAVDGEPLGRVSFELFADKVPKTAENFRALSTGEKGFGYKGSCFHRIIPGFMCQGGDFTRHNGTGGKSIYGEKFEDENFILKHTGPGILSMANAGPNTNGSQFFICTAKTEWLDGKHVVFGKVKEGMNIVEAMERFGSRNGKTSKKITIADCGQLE
# Assay overview: Ras-Raf disruption/FRET/MOA assay, NRAS G12C
# Assay type: biochemical

{"Molecule smiles": "CCn1c(-c2cccnc2[C@H](C)OC)c2c3cc(ccc31)-c1cc(O)cc(c1)C[C@H](NC(=O)[C@H](C(C)C)N(C)C(=O)[C@@]1(C)CCCN1C(=O)[C@@H]1CN1)C(=O)N1CCC[C@H](N1)C(=O)OCC(C)(C)C2", "Assayed system": "NRAS G12C (Homo sapiens (Human), UniProt P01111+P62937, G12C)", "IC50": "< 10 nM"}
{"Molecule smiles": "CCn1c(-c2cnccc2COC)c2c3cc(ccc31)-c1cc(O)cc(c1)C[C@H](NC(=O)[C@H](C(C)C)N(C)C(=O)CN(C)C(=O)[C@H]1N[C@H]1C1CC1)C(=O)N1CCC[C@H](N1)C(=O)OCC(C)(C)C2", "Assayed system": "NRAS G12C (Homo sapiens (Human), UniProt P01111+P62937, G12C)", "IC50": "10 to 100 nM"}
{"Molecule smiles": "CCn1c(-c2cnccc2COC)c2c3cc(ccc31)-c1cc(O)cc(c1)C[C@H](NC(=O)[C@H](C(C)C)N(C)C(=O)CN(C)C(=O)[C@H]1N[C@@H]1c1ccccc1)C(=O)N1CCC[C@H](N1)C(=O)OCC(C)(C)C2", "Assayed system": "NRAS G12C (Homo sapiens (Human), UniProt P01111+P62937, G12C)", "IC50": "10 to 100 nM"}
{"Molecule smiles": "CCn1c(-c2cnccc2COC)c2c3cc(ccc31)-c1cc(O)cc(c1)C[C@H](NC(=O)[C@H](C(C)C)N(C)C(=O)CN(C)C(=O)[C@@H]1N[C@H]1c1ccc(OC)cc1)C(=O)N1CCC[C@H](N1)C(=O)OCC(C)(C)C2", "Assayed system": "NRAS G12C (Homo sapiens (Human), UniProt P01111+P62937, G12C)", "IC50": "10 to 100 nM"}
{"Molecule smiles": "CCn1c(-c2cccnc2[C@H](C)OC)c2c3cc(ccc31)-c1cc(O)cc(c1)C[C@H](NC(=O)[C@H](C(C)C)N(C)C(=O)[C@]1(C)CCCN1C(=O)[C@H]1CN1)C(=O)N1CCC[C@H](N1)C(=O)OCC(C)(C)C2", "Assayed system": "NRAS G12C (Homo sapiens (Human), UniProt P01111+P62937, G12C)", "IC50": "10 to 100 nM"}
{"Molecule smiles": "CCn1c(-c2cccnc2[C@H](C)OC)c2c3cc(ccc31)-c1cc(O)cc(c1)C[C@H](NC(=O)[C@@H](C(C)C)N(C)C(=O)[C@@]1(C)CCCN1C(=O)[C@H]1CN1)C(=O)N1CCC[C@H](N1)C(=O)OCC(C)(C)C2", "Assayed system": "NRAS G12C (Homo sapiens (Human), UniProt P01111+P62937, G12C)", "IC50": "100 to 1000 nM"}
{"Molecule smiles": "CCn1c(-c2cccnc2[C@H](C)OC)c2c3cc(ccc31)-c1cc(O)cc(c1)C[C@H](NC(=O)[C@@H](C(C)C)N(C)C(=O)[C@@]1(C)CCCN1C(=O)[C@@H]1CN1)C(=O)N1CCC[C@H](N1)C(=O)OCC(C)(C)C2", "Assayed system": "NRAS G12C (Homo sapiens (Human), UniProt P01111+P62937, G12C)", "IC50": "100 to 1000 nM"}
{"Molecule smiles": "CCn1c(-c2cccnc2[C@H](C)OC)c2c3cc(ccc31)-c1cc(O)cc(c1)C[C@H](NC(=O)[C@H](C(C)C)N(C)C(=O)[C@@]1(C)CCCN1C(=O)[C@H]1CN1)C(=O)N1CCC[C@H](N1)C(=O)OCC(C)(C)C2", "Assayed system": "NRAS G12C (Homo sapiens (Human), UniProt P01111+P62937, G12C)", "IC50": "10 to 100 nM"}

###

Overview of recorded pIC50 for various molecules
# Assayed system: KRAS G12D (Homo sapiens (Human), UniProt P01116+P62937, G12D)
# Sequence (P01116 other isoform, or with tags, fused parts or gaps G12D): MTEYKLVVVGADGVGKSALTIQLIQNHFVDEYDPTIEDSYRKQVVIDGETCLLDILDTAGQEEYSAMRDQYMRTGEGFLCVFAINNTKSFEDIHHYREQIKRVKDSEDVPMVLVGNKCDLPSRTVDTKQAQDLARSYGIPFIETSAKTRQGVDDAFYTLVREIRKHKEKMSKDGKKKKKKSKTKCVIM
# Sequence (P62937 whole entry): as the sequence (P62937 whole entry) above
# Assay overview: Ras-Raf disruption/FRET/MOA assay (BRAF RBD, Cyclophilin A)
# Assay type: biochemical
# Test conditions: read-out: KRAS G12D FRET IC50
pIC50: −log10 of the molar value.

{"Molecule": "CCn1c(-c2cccnc2[C@H](C)OC)c2c3cc(ccc31)-c1cc(O)cc(c1)C[C@H](NC(=O)[C@H](C(C)C)N(C)C(=O)[C@H]1CCN(C(C)=O)C1)C(=O)N1CCC[C@H](N1)C(=O)NCC(C)(C)C2 [Compound A431]", "pIC50": "5.00 to 6.00"}
{"Molecule": "CCn1c(-c2cccnc2[C@H](C)OC)c2c3cc(ccc31)-c1csc(n1)C[C@H](NC(=O)[C@H](C(C)C)N(C)C(=O)N1CCS(=O)(=O)CC1)C(=O)N1CCC[C@H](N1)C(=O)OCC(C)(C)C2 [Compound A357]", "pIC50": "5.00 to 6.00"}
{"Molecule": "CCn1c(-c2cccnc2[C@H](C)OC)c2c3cc(ccc31)-c1csc(n1)C[C@H](NC(=O)[C@H](C(C)C)N(C)C(=O)N1CCC[C@H]1c1ccccc1)C(=O)N1CCC[C@H](N1)C(=O)OCC(C)(C)C2 [Compound A599]", "pIC50": "5.00 to 6.00"}
{"Molecule": "CCn1c(-c2cccnc2[C@H](C)OC)c2c3cc(ccc31)-c1csc(n1)C[C@H](NC(=O)[C@H](C(C)C)N(C)C(=O)N1CCC1)C(=O)N1CCC[C@H](N1)C(=O)OCC(C)(C)C2 [Compound A399]", "pIC50": "6.00 to 7.00"}
{"Molecule": "CCn1c(-c2cccnc2[C@H](C)OC)c2c3cc(ccc31)-c1csc(n1)C[C@H](NC(=O)[C@H](C(C)C)N(C)C(=O)N1CC(S(=O)(=O)N(C)C)C1)C(=O)N1CCC[C@H](N1)C(=O)OCC(C)(C)C2 [Compound A551]", "pIC50": "6.00 to 7.00"}
{"Molecule": "CCn1c(-c2cccnc2[C@H](C)OC)c2c3cc(ccc31)-c1csc(n1)C[C@H](NC(=O)[C@H](C(C)C)N(C)C(=O)N1CCC[C@H](N(C)C)CC1)C(=O)N1CCC[C@H](N1)C(=O)OCC(C)(C)C2 [Compound A493]", "pIC50": "6.00 to 7.00"}
{"Molecule": "CCn1c(-c2cccnc2[C@H](C)OC)c2c3cc(ccc31)-c1cc(O)cc(c1)C[C@H](NC(=O)[C@H](C(C)C)N(C)C(=O)[C@H]1CCN(C(=O)OC3CC3)C1)C(=O)N1CCC[C@H](N1)C(=O)OCC(C)(C)C2 [Compound A202]", "pIC50": "6.00 to 7.00"}
{"Molecule": "CCn1c(-c2cnccc2COC)c2c3cc(ccc31)-c1cc(O)cc(c1)C[C@H](NC(=O)[C@H](C(C)C)N(C)C(=O)CCCCN)C(=O)N1CCC[C@H](N1)C(=O)OCC(C)(C)C2 [Compound A66]", "pIC50": "6.00 to 7.00"}
{"Molecule": "CCn1c(-c2cccnc2[C@H](C)OC)c2c3cc(ccc31)-c1csc(n1)C[C@H](NC(=O)N1CC[C@@H]1COC)C(=O)N1CCC[C@H](N1)C(=O)OCC(C)(C)C2 [Compound A264]", "pIC50": "6.00 to 7.00"}
{"Molecule": "CCn1c(-c2cccnc2[C@H](C)OC)c2c3cc(ccc31)-c1cc(O)cc(c1)C[C@H](NC(=O)[C@H](C(C)C)N(C)C(=O)N1CC(OC)C1)C(=O)N1CCC[C@H](N1)C(=O)OCC(C)(C)C2 [Compound A364]", "pIC50": "6.00 to 7.00"}
{"Molecule": "CCn1c(-c2cccnc2[C@H](C)OC)c2c3cc(ccc31)-c1cc(O)cc(c1)C[C@H](NC(=O)[C@H](C(C)C)N(C)C(=O)[C@H]1CCN(C3CC3)C1)C(=O)N1CCC[C@H](N1)C(=O)OCC(C)(C)C2 [Compound A175]", "pIC50": "5.00 to 6.00"}
{"Molecule": "CCn1c(-c2cccnc2[C@H](C)OC)c2c3cc(ccc31)-c1cc(O)cc(c1)C[C@H](NC(=O)[C@H](C(C)C)N(C)C(=O)C13CCC(CC1)O3)C(=O)N1CCC[C@H](N1)C(=O)OCC(C)(C)C2 [Compound A412]", "pIC50": "6.00 to 7.00"}
{"Molecule": "CCn1c(-c2cnccc2COC)c2c3cc(ccc31)-c1cc(O)cc(c1)C[C@H](NC(=O)[C@H](C(C)C)N(C)c1ncco1)C(=O)N1CCC[C@H](N1)C(=O)OCC(C)(C)C2 [Compound A52]", "pIC50": "< 5.00"}
{"Molecule": "CCn1c(-c2cccnc2[C@H](C)OC)c2c3cc(ccc31)-c1cc(O)cc(c1)C[C@H](NC(=O)[C@H](C(C)C)N(C)C(=O)[C@@H]1OCC[C@H]1c1ccccc1)C(=O)N1CCC[C@H](N1)C(=O)OCC(C)(C)C2 [Compound A584]", "pIC50": "7.00 to 8.00"}
{"Molecule": "CCn1c(-c2cnccc2COC)c2c3cc(ccc31)-c1cc(O)cc(c1)C[C@H](NC(=O)[C@H](C(C)C)N(C)C(=O)[C@H]1CCN(C[C@H](C)O)C1)C(=O)N1CCC[C@H](N1)C(=O)OCC(C)(C)C2 [Compound A47]", "pIC50": "5.00 to 6.00"}
{"Molecule": "CCn1c(-c2cccnc2[C@H](C)OC)c2c3cc(ccc31)-c1csc(n1)C[C@H](NC(=O)[C@H](C(C)C)N(CCc1ccncc1)C1CC1)C(=O)N1CCC[C@H](N1)C(=O)OCC(C)(C)C2 [Compound A556]", "pIC50": "5.00 to 6.00"}
{"Molecule": "CCn1c(-c2cccnc2COC)c2c3cc(ccc31)-c1cc(O)cc(c1)C[C@H](NC(=O)[C@H](C(C)C)N(C)C(=O)c1ccc(NC(=O)/C=C/CN(C)C)cn1)C(=O)N1CCC[C@H](N1)C(=O)OCC(C)(C)C2 [Compound A67]", "pIC50": "6.00 to 7.00"}
{"Molecule": "CCn1c(-c2cccnc2[C@H](C)OC)c2c3cc(ccc31)-c1cccc(c1)C[C@H](NC(=O)[C@H](C(C)C)N(C)C(=O)[C@H]1CCNC1)C(=O)N1CCC[C@H](N1)C(=O)OCC(C)(C)C2 [Compound A119]", "pIC50": "5.00 to 6.00"}
